All figures here come from paper PMC4558565.

response (% of signal with wt bZIP63 and AKIN10) values for the variants below.
B1: bZIP63 (protoplast two-hybrid fusion) [Arabidopsis thaliana] / bZIP63 (protoplast two-hybrid fusion) [Arabidopsis thaliana] (parent)
chain 1: MEKVFSDEEISGNHHWSVNGMTSLNRSASEWAFNRFIQESSAAADDGESTTACGVSVSSPPNVPVDSEEYRAFLKSKLNLACAAVAMKRGTFIKPQDTSGRSDNGGANESEQASLASSKATPMMSSAITSGSELSGDEEEADGETNMNPTNVKRVKRMLSNRESARRSRRRKQAHLSELETQVSQLRVENSKLMKGLTDVTQTFNDASVENRVLKANIETLRAKVKMAEETVKRLTGFNPMFHNMPQIVSTVSLPSETSNSPDTTSSQVTTPEIISSGNKGKALIGCKMNRTASMRRVESLEHLQKRIRSVGDQ
chain 2: B1 chain 1

Variants of: B1
Test: protoplast two-hybrid (P2H) assay
Conditions: - AKIN10 (no co-transformation), parent: 13, read off a plot
Measured property: response (% of signal with wt bZIP63 and AKIN10)

[[record]]
mutation = "chain 1 S300A"
number = 8

[[record]]
mutation = "chain 1 S294A"
number = 10

[[record]]
mutation = "chain 1 S294A S300A"
number = 10

[[record]]
mutation = "chain 1 S29A S294A S300A"
number = 11

[[record]]
mutation = "chain 1 S29A"
number = 7

